Just for reference, patent US20160303258A1 is where these values come from.

# TARGET: guanylyl cyclase C (GCC) (human), P25092
# Sequence (P25092 24-1073 limits assumed): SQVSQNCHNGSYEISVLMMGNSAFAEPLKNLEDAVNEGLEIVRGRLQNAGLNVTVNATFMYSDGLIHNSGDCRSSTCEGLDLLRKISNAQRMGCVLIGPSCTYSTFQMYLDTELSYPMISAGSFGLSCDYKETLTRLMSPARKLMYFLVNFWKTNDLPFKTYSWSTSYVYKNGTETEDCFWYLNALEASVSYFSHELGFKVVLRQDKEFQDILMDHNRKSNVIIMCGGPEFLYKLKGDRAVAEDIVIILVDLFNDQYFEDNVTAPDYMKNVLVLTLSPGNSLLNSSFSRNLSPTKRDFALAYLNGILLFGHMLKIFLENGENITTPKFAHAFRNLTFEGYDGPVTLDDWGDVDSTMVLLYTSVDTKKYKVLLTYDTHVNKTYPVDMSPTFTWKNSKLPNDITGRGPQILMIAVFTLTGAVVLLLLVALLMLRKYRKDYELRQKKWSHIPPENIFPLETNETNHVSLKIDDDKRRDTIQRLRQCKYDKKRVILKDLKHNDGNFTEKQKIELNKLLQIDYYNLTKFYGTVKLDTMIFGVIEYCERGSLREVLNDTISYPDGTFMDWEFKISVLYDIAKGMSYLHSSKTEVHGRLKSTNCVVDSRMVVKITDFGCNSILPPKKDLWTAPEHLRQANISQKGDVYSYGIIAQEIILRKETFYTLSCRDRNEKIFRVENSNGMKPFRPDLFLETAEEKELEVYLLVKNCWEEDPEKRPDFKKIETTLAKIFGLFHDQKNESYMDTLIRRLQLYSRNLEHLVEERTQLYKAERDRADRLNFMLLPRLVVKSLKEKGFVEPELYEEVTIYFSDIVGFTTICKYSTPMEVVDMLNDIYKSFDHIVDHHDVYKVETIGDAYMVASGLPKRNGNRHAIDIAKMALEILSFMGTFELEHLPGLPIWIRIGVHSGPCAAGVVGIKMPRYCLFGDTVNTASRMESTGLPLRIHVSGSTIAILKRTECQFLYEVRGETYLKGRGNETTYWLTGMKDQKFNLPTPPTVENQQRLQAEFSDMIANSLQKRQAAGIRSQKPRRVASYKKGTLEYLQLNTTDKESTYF
# PROTOCOL_DETAILS: competitive binding against [111In]MLN6907 on HEK-293 GCC Clone 2 cells; DSP without chelation reaction conditions
pIC50: −log10 of the molar value.

- BINDER: "CCELCCNPACAGCY (modifications not checked) [MLN6907 DSP (drug substance precursor), Formula (VI): DOTA-Ahx-STp(5-18), not radiolabeled]"
  pIC50: 8.34
